- Tested on: P12-Ichikawa
- test.details: cell viability relative to DMSO control; higher = less cytotoxic
- reported.conditions: RPMI 5 mM glucose + 10% FBS; 48 h; 0.00234 µM
cell viability: recorded values
State the answer as a number, implicitly in %.

Example entries and their recorded answers appear below.
- compound: "CN(CCOc1ccc(NS(C)(=O)=O)cc1)CCc1ccc(NS(C)(=O)=O)cc1"
  measurement.units: "%"
  reported: 127
- compound: "O=[S+]([O-])(/N=C/c1c(O)ccc2ccccc12)c1cccs1"
  measurement.units: "%"
  reported: 123
- compound: "CCCCCCCCOc1ccccc1C(=O)Nc1ccc(C(=O)OCC[N+](C)(CC)CC)cc1"
  measurement.units: "%"
  reported: 102
- compound: "CCCNCC(O)COc1ccccc1C(=O)CCc1ccccc1 (stereo unspecified)"
  measurement.units: "%"
  reported: 105
- compound: "C[N]1N=CC2=C1C=C(C(=C2)OC3=CC=C(NC(=O)\\C4=C\\C=C(\\C)N(C4=O)C5=CC=C(F)C=C5)C=C3F)C6=C[NH]N=C6"
  measurement.units: "%"
  reported: 109

Ask: Enter measured cell viability, system P12-Ichikawa, for the compound shown: CC(Cc1ccc(O)c(O)c1)(NN)C(=O)O (stereo unspecified)
Result: 113

Ask: Enter measured cell viability, system P12-Ichikawa, for the compound shown: `O=C(O)CCNc1cc(N2CCc3ccccc3CC2)nc(-c2ccccn2)n1`
Result: 119

Ask: Under P12-Ichikawa: report cell viability of `O=C([O-])[C@H](CC(=O)N1C[C@H]2CCCC[C@H]2C1)Cc1ccccc1` .
Result: 129

Ask: Write down the reported cell viability (system: P12-Ichikawa) of `CN1/C=C(\N=C(NC2=CC=C(C=C2)C(=O)N3CCOCC3)/C1=O)/C4=C(C)C(=CC=C4)NC(=O)C5=CC=C(C=C5)C(C)(C)C`
Result: 95.4

Ask: State, for P12-Ichikawa, measured cell viability of the compound listed here: `NCCCC(O)(P(=O)(O)O)P(=O)(O)O.O.O.O.[Na+]`
Result: 116

Ask: Fill in: cell viability on P12-Ichikawa, entry `CO[C@@H]1[C@@H](OC(N)=O)[C@@H](O)[C@H](OC2=CC=C3\C(=C(NC(=O)C4=CC=C([O-])C(=C4)CC=C(C)C)/C(=O)OC3=C2C)O)OC1(C)C`
Result: 108

Ask: Output reported cell viability of the compound O=C1CCC[C@@H]2[C@H]3CCC[N+]4([O-])CCC[C@@H](CN12)[C@@H]34 (stereo partly specified) on P12-Ichikawa.
Result: 80.8

Ask: Consider the compound CCc1cccc2c3c([nH]c12)C(CC)(CC(=O)O)OCC3 (stereo unspecified) tested on P12-Ichikawa; state its cell viability.
Result: 107

Ask: State the measured cell viability (P12-Ichikawa) of COc1ccc(CC2c3cc(OC)c(OC)cc3CC[N+]2(C)CCC(=O)OCCCCCOC(=O)CC[N+]2(C)CCc3cc(OC)c(OC)cc3C2Cc2ccc(OC)c(OC)c2)cc1OC (stereo unspecified)
Result: 86.4

Ask: Give P12-Ichikawa cell viability for the following compound: `CN1CCN(Cc2ccc(NC(=O)Nc3ccc(Oc4cc(NC(=O)C5CC5)ncn4)cc3)cc2C(F)(F)F)CC1`
Result: 110

Ask: Look up P12-Ichikawa data: cell viability of `C[C@]12CC[C@@H]3c4ccc(O)cc4CC[C@H]3[C@@H]1CC[C@@H]2O` , then report it.
Result: 112

Ask: Write down measured cell viability (P12-Ichikawa) for this compound. `CCN1\C=C(C(O)=O)/C(=O)C2=C1C=C(N3CCN(C)CC3)C(=C2)F`
Result: 116

Ask: Retrieve cell viability on P12-Ichikawa; query `C[C@H]1C[C@H]2[C@@H]3CCC4=CC(=O)C=C[C@]4(C)[C@H]3C(=O)C[C@]2(C)[C@@]1(O)C(=O)CO`
Result: 98.1

Ask: Report its cell viability with P12-Ichikawa as the test system: `O=C(O)[C@@H](c1ccc(OCc2ccc3ccccc3n2)cc1)C1CCCC1`
Result: 116

Ask: Send back P12-Ichikawa cell viability of `CO[C@H]1/C=C/O[C@@]2(C)Oc3c(C)c(O)c4c(O)c(c(/C=N/N5CCN(C)CC5)c(O)c4c3C2=O)NC(=O)/C(C)=C\C=C\[C@H](C)[C@H](O)[C@@H](C)[C@@H](O)[C@@H](C)[C@H](OC(C)=O)[C@@H]1C` only.
Result: 111

Ask: Using P12-Ichikawa as the test system, report measured cell viability of `O=C(O)c1ccc(-c2c[nH]c3ncc(-c4ccccc4)cc23)cc1C1CCCC1` .
Result: 131

Ask: Name the value of cell viability reported for `Cn1cc(-c2cnn3c(N)c(Br)c([C@@H]4CCCNC4)nc23)cn1` when tested on P12-Ichikawa.
Result: 98.8

Ask: Specify cell viability for NC1CCC(Nc2nc(Nc3ccc(C(=O)N4CCCCC4)cc3)c3ncn(-c4cccc(F)c4)c3n2)CC1 (stereo unspecified) , system P12-Ichikawa.
Result: 119
